This collection of values is drawn from a melting point compilation (Tetko et al.; mined from patent text by program, amines drawn as free bases though some values may be those of a salt).

parameter: melting point

Worked cases, answers included:
O=c1oc(Oc2ccc(Cl)cc2)nn1-c1ccccc1Cl: 110 °C
CCCCc1nnc2c(NC3CCCC3)nc3ccccc3n12: 195 to 197 °C
CCOC(=O)CNC(=O)Oc1c(C)n(CC)ccc1=O: 102 to 103 °C

Would you kindly share the measured melting point for `O=C(O)Cc1cc(C(=O)Cc2ccc(C(=O)O)cc2)ccc1O` ?
> 260 °C

Would you kindly share the measured melting point for `COC1CCN(c2nnc(-c3ccc(C)cc3)c(-c3ccc(C)cc3)n2)CC1` ?
120 to 121 °C

Would you kindly share the measured melting point for CCC(=O)COc1ccc(CC2SC(=O)N(C(c3ccccc3)(c3ccccc3)c3ccccc3)C2=O)cc1 (centres undefined) ?
155 to 156 °C

Would you kindly share the measured melting point for Cc1c(F)c(F)c(COC(=O)C(c2cnc(C(C)(C)C)nc2)C(C)(C)C)c(F)c1F (racemic) ?
91 °C

Would you kindly share the measured melting point for CCCCCCC(C)Oc1ccc(N=Cc2ccccc2)cc1 (centres undefined) ?
47.3 °C

Would you kindly share the measured melting point for `O=C(c1ccc(-c2cnc3c(c2)N(Cc2cc(Cl)ccc2Cl)C(=O)CN3)cc1)N1CCC(N2CCCC2)CC1` ?
> 200 °C
